Target: T1, LILRB2-His antigen (UniProt Q8N423 22-460, limits assumed)
T1 construct: Coated on ELISA plates; also used for phage panning; also called LILRB2 antigen; not shown: His tag
Assay: indirect ELISA, coated LILRB2-His
MEASURE NAME: EC50 (nM)
Field format: number, assumed nM, no unit text.

Exercise: Param item = B2-22 (antibody, V domains shown, also called B2-22_HC; B2-22_LC) VH: QVQLVQSGAEVKKPGASVKVSCKASGYTFTSYGISWVRQAPGQGLEWMGWISAYNGNTNYAQKLQGRVTMTTDTSTSTAYMELRSLRSDDTAVYYCARVGSYGDYWGQGTLVTVSS VL: QSPSSLSASVGDRVTITCRASQGISNYLAWYQQKPGKVPKLLIYAASTLQSGVPSRFSGSGSGTDFTLTISSLQPEDVATYYCQKYNSAPLTFGGGTKLEIK ; retrieve measured EC50.
Key: 0.348

Exercise: Another binder to check: B2-13 (antibody, V domains shown, also called B2-13_HC; B2-13_LC) VH: QVQLVQSGAEVKKPGSSVKVSCKASGGTFSSYAISWVRQAPGQGLEWMGGIIPIFGTANYAQKFQGRVTITADESTSTAYMELSSLRSEDTAVYYCARSDYGDSYFDYWGQGTLVSVSS VL: QAVVTQPASVSGSPGQSVSISCTGTSSDVGGFNYVSWYQQHPGKAPKLMIYDVSNRPSGVSNRFSGSKSGNTASLTISGLQAEDEADYYCSSYTSSTAPYVFGTGTKVTVL
Key: 5.15

Exercise: Another binder to check: B2-17 (antibody, V domains shown, also called B2-17_HC; B2-17_LC) VH: EVQLLDSGPRLLKPSETLSLTCGVSGVSTSSTHWWSWVRQTPGKGLEWIGEILHNGNTNSNPSLKSRVSMSIDKSRNQFSLQLKSMTAADTAVYYCASASPNWGASGAFDAWAQGTMVTVSS VL: QSVLTQPPSASATPGQRVTISCSGSSSNIGSNPVNWYQQVPGMAPELVMYSDNQRPSGVPDRFSGSNSGTSASLAISGLQSEDEADYYCSTWDDSLNGLVFGTGTKVTVL
Key: 24.6

Attribution: patent US20230068663A1
